The values you see were collected from patent US20210388087A1.

molecular target: T1, Human CD137 ECD (human); assay: SPR, vs parent H183/L072
T1 construct: also called 4-1BB
T1 sequence (chain, as listed by the source limits assumed): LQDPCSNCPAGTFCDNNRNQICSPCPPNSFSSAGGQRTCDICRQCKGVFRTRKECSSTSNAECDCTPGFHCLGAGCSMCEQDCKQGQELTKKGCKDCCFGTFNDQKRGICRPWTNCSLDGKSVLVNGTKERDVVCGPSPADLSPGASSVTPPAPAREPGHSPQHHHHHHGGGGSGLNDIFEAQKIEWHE
Each entry below carries its reported fold change of affinity.
Kindly provide the numeric value in fold only, without the unit symbol.

Would you please look over these solved cases?
- BINDER: "dBBDu183H A100fS / dBBDu072L (antibody, name in Kabat numbering, V domains shown, as m1, one VH change) VH: QVQLVESGGGLVQPGRSLRLSCAASGFTFSNAWMHWVRQAPGKGLEWVAQIKDKGNAYAAYYAPSVKGRFTISRDDSKNSIYLQMNSLKTEDTAVYYCHYVHYASASTVLPSFGVDAWGQGTTVTVSS VL: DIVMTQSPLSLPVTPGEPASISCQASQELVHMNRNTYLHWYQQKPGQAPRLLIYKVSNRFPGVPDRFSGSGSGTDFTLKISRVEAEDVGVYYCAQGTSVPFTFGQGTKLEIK"
  fold change of affinity (fold): 0.7
- BINDER: "dBBDu183H S62E / dBBDu072L (antibody, name in Kabat numbering, V domains shown, as m1, one VH change) VH: QVQLVESGGGLVQPGRSLRLSCAASGFTFSNAWMHWVRQAPGKGLEWVAQIKDKGNAYAAYYAPEVKGRFTISRDDSKNSIYLQMNSLKTEDTAVYYCHYVHYASASTVLPAFGVDAWGQGTTVTVSS VL: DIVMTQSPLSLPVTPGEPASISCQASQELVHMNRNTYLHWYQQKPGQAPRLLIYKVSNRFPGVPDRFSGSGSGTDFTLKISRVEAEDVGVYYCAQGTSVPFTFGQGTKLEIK"
  fold change of affinity (fold): 0.8

Ask: Quick one: fold change of affinity of dBBDu183H K64V / dBBDu072L (antibody, name in Kabat numbering, V domains shown, as m1, one VH change) VH: QVQLVESGGGLVQPGRSLRLSCAASGFTFSNAWMHWVRQAPGKGLEWVAQIKDKGNAYAAYYAPSVVGRFTISRDDSKNSIYLQMNSLKTEDTAVYYCHYVHYASASTVLPAFGVDAWGQGTTVTVSS VL: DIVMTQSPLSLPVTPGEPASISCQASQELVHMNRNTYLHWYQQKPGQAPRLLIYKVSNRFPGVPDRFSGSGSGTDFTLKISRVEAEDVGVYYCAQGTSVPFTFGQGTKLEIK ?
Reply: 1
